# TARGET OR TEST SYSTEM: T1, CD27 protein (His-tagged, Sino Biological Inc. 10039-H08B1) (human, UniProt P26842 20-192)
# T1 construct: bought; coated onto ELISA plates; also called human CD27; recombinant protein; not shown: His tag
# T1 sequence (looked up): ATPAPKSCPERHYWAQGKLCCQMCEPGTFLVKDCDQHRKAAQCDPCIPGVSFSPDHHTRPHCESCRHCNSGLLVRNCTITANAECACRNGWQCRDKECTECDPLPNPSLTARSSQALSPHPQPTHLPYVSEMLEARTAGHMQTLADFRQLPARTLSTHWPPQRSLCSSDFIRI
# EXPERIMENTAL PROTOCOL: ELISA on coated His-tagged CD27; also: test concentration or dose not given here
RECORDED ENDPOINT: ELISA [abs. corr.] (abs. corr.)
Numbers only, in abs. corr..

>>> result("P018.S.06.A.F04 (antibody, V domains shown, V regions on human Ig constant parts; also called AB27_109) VH: QQQLEESGGGLVKPEGSLTLTCKASGFTLSSYLMCWVRQAPGKGLELIGCIGTYSGATYYGSWAKDRFTIAKTSSTTVTLQMTSLTAADTATYFCARDYNFALWGPGTLVTVSS VL: AIVMTQTPSSKSVPVGDTVTINCQASESVYNNNYLSWFQQKPGQPPKLLIYGASTLTSGVPSRFKGSGSGTQFTLTISDVVSDDAATYYCAGYKSSWTDGNAFGGGTEVVVK")
3.18
>>> result("P018.S.02.A.G01 (antibody, V domains shown, V regions on human Ig constant parts; also called AB27_37) VH: QSLEESGGRLVTPGTPLTLTCTVSGIDLSSNAMNWVRQAPGKGLEWIGIIYTSGSTYYASWVKGRFTISRTSTTVDLEMTSLTTEDTATYFCARGVTIDWFDLWGQGTLVTVSS VL: AAVLTQTPSSVSAAVGGTVTINCQSSPSVYSNYLSWFQQKPGQPPKLLIYGASTLTSGVPSRFKGSGSGTQFTLTINDVQSDDAATYWCLGGYGDINDTTFGGGTEVVVK")
3.41

We now examine a further binder.
Suppose we examine the binder P018.S.04.A.A05 (antibody, V domains shown, V regions on human Ig constant parts; also called AB27_65) VH: QSLEESGGRLVTPGTPLTLTCTASGFTISSYEMGWVRQAPGEGLEYIGWIASGGSTFYASWAKGRFTISRTSTTVDLTITDLRPSDTGTYFCARGYVEFKLWGPGTLVTVSS VL: DIVMTQTPASVSESVGGTVTIKCQASQSIGSYLSWYQQKPGQPPKVLIYRASTLESGVPSRFEGSGSGTQFTLTISDLESADAATYYCQGYHSTSGYVAFGGGTELVVK ; what ELISA [abs. corr.] value has been reported?
3.29
